Test: CCTE_Padilla_ZF_Score.Living: CCTE's 144 Hour Post-fertilization zebrafish Assay Score for Viability, Padilla Lab (AID 2284410);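 note: larval death at 6 dpf judged by absent heartbeat or coagulation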
Calls of active or inactive are those of the source. Rule for the calls: active = hit-call score of the fitted dose curve at least 0.9, where 1 is the maximum; inactive = score below 0.9.
Measured Quantity: AC50

Data request: Let me know recorded AC50 for "O=C(O)C(F)(F)C(F)(F)C(F)(F)C(F)(F)C(F)(F)C(F)(F)C(F)(F)C(F)(F)C(F)(F)C(F)F" , thanks.
Data returned: 17.5 µM (active)

Data request: Let me know recorded AC50 for "C=C(C)C(=O)OCCC(F)(F)C(F)(F)C(F)(F)C(F)(F)C(F)(C(F)(F)F)C(F)(F)F" , thanks.
Data returned: inactive

Data request: Let me know recorded AC50 for "CC(C)(C)C(=O)CC(=O)C(F)(F)C(F)(F)C(F)(F)F" , thanks.
Data returned: 32.8 µM (active)

Data request: Let me know recorded AC50 for "C=CC(F)(F)C(F)(F)C(F)(F)C(F)(F)C(F)(F)C(F)(F)C(F)(F)C(F)(F)F" , thanks.
Data returned: inactive

Data request: Let me know recorded AC50 for "O=S(=O)(OCC(F)F)C(F)(F)F" , thanks.
Data returned: inactive

Return reported AC50 values for all items listed beneath this line.
1. O=C(O)C(F)(F)C(F)(F)C(F)(F)C(F)(F)C(F)(F)C(F)(F)C(F)(F)C(F)(F)Cl
2. O=C(O)C(F)(OC(F)(F)C(F)(OC(F)(F)C(F)(F)C(F)(F)F)C(F)(F)F)C(F)(F)F (stereo unspecified)
3. C=C(C)C(=O)OCC(F)(F)C(F)(F)C(F)(F)F
4. OCC(F)(F)C(F)(F)C(F)(F)F

Data returned:
["35.5 µM (active)", "inactive", "inactive", "inactive"]

Return reported AC50 values for all items listed beneath this line.
1. OCCCC(F)(F)C(F)(F)C(F)(F)F
2. O=C(Cl)C(F)(F)C(F)(F)C(F)(F)C(F)(F)C(F)(F)C(F)(F)C(F)(F)C(F)(F)F

Data returned:
["inactive", "inactive"]
